| COMPOUND | melting point |
| --- | --- |
| Cc1cc(Br)c(N)c([N+](=O)[O-])c1 | 58 to 59 °C |
| CC(=O)Nc1ccc(Br)cc1C | 160 to 163 °C |
| O=C(O)c1scc2c1OCCO2 | 205 to 206 °C |
| CNc1ccccc1OC | 30 to 33 °C |
| O=C(C=Cc1ccc(-c2cccc([N+](=O)[O-])c2)o1)c1ccccc1 | 146 to 147 °C |
| N#CC(N)C(N)=O (configuration not stated) | 120 to 124 °C |
| Nc1c(Br)cc(Br)c(Cl)c1C(=O)O | 212 to 215 °C |
